target: SARS-COV-2 RBD-MMH (SARS-COV-2 RBD extracellular domain with C-terminal myc-myc-hexahistidine tag) (SARS-CoV-2)
Quantity Name: t½ at pH 7.4 (min)

| Binder | Quantity Name | Value Observed |
| --- | --- | --- |
| mAb14230 (antibody, V domains shown) VH: EVQLVESGGGLIQPGRSLRLSCAASGFTFDDYAMHWVRQAPGKGLEWVSGISWNSVSIDYADSVKGRFTISRDNAKNSLYLQMTSLTVEDTALYYCAKAFGYETLTGSDYFAYWGPGTLVTVSS VL: EIVLTQSPGTLSLSPGERATLSCRASQTVISTYLAWYQQKPGQSPRLLIYGASSRATGIPDRFSGSGSGTDFTLTISRLEPEDFAVYYCQQYGSSPQLTFGGGTKVEIKR | t½ at pH 7.4 | 1.5 |
| mAb14258 (antibody, V domains shown) VH: QLQLQESGPGLVKPSETLSLICTGSGDSISSSHYYWGWIRQPPGKGLEWIGSTYFSGSTYYNPSLKSRVSISVDTSKNQVSLKLISVTAADTAVYYCAREMGATLGDYWGPGTLVTVSS VL: QSVLTQPPSASGTPGQRVTISCSGSSSNIGNNYVYWYQQFPGTTPRLLIYRNNERPSGVPDRFSGSKSGTSASLVISGLRSEDEADYYCAAWDDSLSAHYVFGTGTKVTVLG | t½ at pH 7.4 | 5.4 |
| mAb15164 (antibody, V domains shown) VH: EVQLVESGGGLVQPGGSLRLSCAASGFAVSSNYMTWVRQAPGKGLEWVATIYSGDSTYYADSVKGRFTISRHNSKNTLSLQMNSLRADDTAIYYCARLSGVLSGTYNGAFDIWGQGTMVTVSS VL: QSALTQPASVSGSPGQSITISCTGTSSDFGNYNIVSWYQQHPGQAPKVMIYEGNKRPSGVSNRFSGSKSGHTASLTISGLQAEDEADYYCSSYAGSSTWVFGGGTKLTVLG | t½ at pH 7.4 | 5.1 |

Hello, the source for this data is patent US20260069689A1, in case you need it.
